Biological target: Prostaglandin G/H synthase 2 (Homo sapiens, UniProt P35354)
Sequence (P35354 whole entry): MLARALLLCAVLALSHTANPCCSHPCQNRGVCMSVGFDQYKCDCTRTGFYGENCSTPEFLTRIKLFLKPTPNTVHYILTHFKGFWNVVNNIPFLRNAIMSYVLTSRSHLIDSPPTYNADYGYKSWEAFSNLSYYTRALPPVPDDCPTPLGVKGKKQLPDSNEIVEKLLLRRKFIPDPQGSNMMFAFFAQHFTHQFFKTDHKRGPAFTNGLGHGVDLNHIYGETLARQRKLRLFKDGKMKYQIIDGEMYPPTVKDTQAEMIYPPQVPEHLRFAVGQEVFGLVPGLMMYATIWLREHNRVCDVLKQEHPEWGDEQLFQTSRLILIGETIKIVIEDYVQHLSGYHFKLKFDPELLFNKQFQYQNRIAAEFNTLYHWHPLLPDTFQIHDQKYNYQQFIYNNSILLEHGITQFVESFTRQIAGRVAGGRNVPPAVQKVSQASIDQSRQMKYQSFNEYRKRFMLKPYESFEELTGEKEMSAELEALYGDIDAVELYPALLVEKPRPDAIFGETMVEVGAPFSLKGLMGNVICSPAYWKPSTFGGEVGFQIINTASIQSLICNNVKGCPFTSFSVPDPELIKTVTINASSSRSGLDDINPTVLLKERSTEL
Test: Inhibition of human recombinant COX2 using arachidonic acid substrate assessed as PGE2 production ELISA method after 2 mins
IC50 reference

Example molecules with recorded IC50:
smiles.entry | IC50
CN(C)c1ccc(/C=C2\Cc3ccccc3C2=O)c([N+](=O)[O-])c1 | 14.8 µM
O=C1/C(=C/c2ccc(N3CCCC3)cc2)COC/C1=C\c1ccc(N2CCCC2)cc1 | > 100 µM
CCOC(OCC)c1ccc(/C=C2\COC/C(=C\c3ccc(C(OCC)OCC)cc3)C2=O)cc1 | 11.2 µM
CCOC(OCC)c1ccc(/C=C2\CN(Cc3ccccc3)C/C(=C\c3ccc(C(OCC)OCC)cc3)C2=O)cc1 | > 100 µM
O=C1/C(=C/c2ccc(N3CCCC3)cc2)CCC/C1=C\c1ccc(N2CCCC2)cc1 | 54.3 µM
O=C1/C(=C/c2ccc(N3CCCC3)cc2)CC/C1=C\c1ccc(N2CCCC2)cc1 | 46.2 µM
CN(C)c1ccc(/C=C2\CC/C(=C\c3ccc(N(C)C)cc3[N+](=O)[O-])C2=O)c([N+](=O)[O-])c1 | > 100 µM
CCOC(OCC)c1ccc(/C=C2\Cc3ccccc3C2=O)cc1 | 19.3 µM

Proceeding to the next molecule to report its IC50.
Any idea what IC50 was measured for CCOC(OCC)c1ccc(/C=C2\CCc3ccccc3C2=O)cc1 ?
> 100 µM
